- System: human TRPV4 (Homo sapiens (Human))
- Sequence (Q9HBA0 whole entry): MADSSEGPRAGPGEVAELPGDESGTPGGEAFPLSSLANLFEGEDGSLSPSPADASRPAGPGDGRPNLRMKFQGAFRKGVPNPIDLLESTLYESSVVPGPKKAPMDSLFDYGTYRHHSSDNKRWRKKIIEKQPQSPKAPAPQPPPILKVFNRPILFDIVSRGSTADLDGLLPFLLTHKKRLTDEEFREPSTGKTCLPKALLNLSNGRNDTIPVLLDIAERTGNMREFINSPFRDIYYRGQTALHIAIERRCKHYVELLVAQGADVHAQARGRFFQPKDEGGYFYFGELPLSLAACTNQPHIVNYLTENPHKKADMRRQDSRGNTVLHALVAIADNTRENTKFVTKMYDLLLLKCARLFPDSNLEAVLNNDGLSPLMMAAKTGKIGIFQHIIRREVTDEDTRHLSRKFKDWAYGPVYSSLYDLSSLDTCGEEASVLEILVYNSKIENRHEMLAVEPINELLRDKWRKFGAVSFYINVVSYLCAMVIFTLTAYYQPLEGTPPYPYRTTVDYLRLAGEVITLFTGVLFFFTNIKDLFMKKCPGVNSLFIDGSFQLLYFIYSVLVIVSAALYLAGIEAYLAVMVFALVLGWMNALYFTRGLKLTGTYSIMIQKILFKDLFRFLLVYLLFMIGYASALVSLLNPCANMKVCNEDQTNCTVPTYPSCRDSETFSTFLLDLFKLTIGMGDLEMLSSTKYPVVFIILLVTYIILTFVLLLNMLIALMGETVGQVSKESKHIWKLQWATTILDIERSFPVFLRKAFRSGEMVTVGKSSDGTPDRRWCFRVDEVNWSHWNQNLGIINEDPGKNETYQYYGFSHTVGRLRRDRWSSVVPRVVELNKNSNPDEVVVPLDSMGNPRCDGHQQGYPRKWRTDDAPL
- Experimental details: Test Example 3: measurement of TRPV4 inhibitory activity (Fluo-3, FDSS 3000, 4α-PDD)
- Type: cell-based
- Run conditions: hTRPV4/CHO cells, calculated from IC50 and 4α-PDD EC50
# Ki values compiled below

{"Smiles representation": "Cc1c(C(=O)Nc2cccc(C(F)(F)F)c2)cc(-c2ccccc2)n1CCCN1CCNCC1", "Ki (nM)": 355}
{"Smiles representation": "Cc1c(C(=O)Nc2cccc(C(F)(F)F)c2)cc(-c2ccccc2)n1CCN1CCOCC1", "Ki (nM)": 443}
{"Smiles representation": "Cc1c(C(=O)Nc2cccc(C(F)(F)F)c2)cc(-c2ccccc2)n1CCCN(C)C(=O)C(C)C", "Ki (nM)": 590}
